Assay read-out log10 of Ki on Neurotensin receptor type 1 (Rattus norvegicus, UniProt P20789); records merged from the literature.
Sequence (P20789 whole entry): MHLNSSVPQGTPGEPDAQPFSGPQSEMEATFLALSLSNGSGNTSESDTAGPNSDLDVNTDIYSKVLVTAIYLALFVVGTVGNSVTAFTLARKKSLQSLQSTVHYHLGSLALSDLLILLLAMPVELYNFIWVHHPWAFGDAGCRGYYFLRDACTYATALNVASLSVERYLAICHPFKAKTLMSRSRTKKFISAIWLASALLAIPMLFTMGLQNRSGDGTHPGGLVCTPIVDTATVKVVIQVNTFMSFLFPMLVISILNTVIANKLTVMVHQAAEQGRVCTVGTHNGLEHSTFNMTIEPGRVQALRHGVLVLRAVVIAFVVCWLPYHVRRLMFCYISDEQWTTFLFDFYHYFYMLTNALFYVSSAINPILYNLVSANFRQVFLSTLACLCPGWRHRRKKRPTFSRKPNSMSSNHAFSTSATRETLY
Hi team, quick reminder: these entries are log10 of Ki (nM).

Specify log10 of Ki for "CC[C@H](C)[C@H](NC(=O)N(Cc1ccc(O)cc1)c1cccc(NC(=O)[C@H](CCCCN)NC(=O)OC(C)(C)C)c1)C(=O)N[C@@H](CC(C)C)C(=O)O" and stop.
3.10

Specify log10 of Ki for "CC[C@H](C)[C@H](NC(=O)[C@H](Cc1ccc(O)cc1)N/C=C/C(=O)[C@@H]1CCCN1C(=O)[C@H](CCCCN)NC(=O)OC(C)(C)C)C(=O)N[C@@H](CC(C)C)C(=O)O" and stop.
3.21

Specify log10 of Ki for "COc1cccc(OC)c1-c1cc(C(=O)NC2(C(=O)O)CCCCC2)nn1-c1ccnc2cc(Cl)ccc12" and stop.
2.25

Specify log10 of Ki for "CC[C@H](C)[C@H](NC(=O)N(Cc1ccc(O)cc1)c1cccc(NC[C@H](CCCCN)NC(=O)OC(C)(C)C)c1)C(=O)N[C@@H](CC(C)C)C(=O)O" and stop.
2.86

Specify log10 of Ki for COc1cccc(OC)c1-c1cc(C(=O)NC2(C(=O)O)C3CC4CC(C3)CC2C4)nn1-c1ccc(C(=O)N(C)CCCN(C)C)cc1C(C)C (configuration not stated) and stop.
0.30
